- Procedure Details: Evaluation for dissolvability of phytochemical (dissolution rate in water)
Reported Property: Saturated solubility (mg/100 g)

These solved cases illustrate the format of a correct answer.
Molecule	Saturated solubility, mg/100 g
C[C@@H]1O[C@@H](O[C@H]2[C@H](Oc3cc(O)c4c(c3)O[C@H](c3ccc(O)cc3)CC4=O)O[C@H](CO)[C@@H](O)[C@@H]2O)[C@H](O)[C@H](O)[C@H]1O	55
O=C1C[C@@H](c2ccc(O)cc2)Oc2cc(O)cc(O)c21	1.1
C[C@@H]1O[C@@H](OC[C@H]2O[C@@H](Oc3c(-c4ccc(O)c(O)c4)oc4cc(O)cc(O)c4c3=O)[C@H](O)[C@@H](O)[C@@H]2O)[C@H](O)[C@H](O)[C@H]1O	1.0
O=c1c(O)c(-c2ccc(O)c(O)c2)oc2cc(O)cc(O)c12	0.1

a = Oc1cc(O)c2c(c1)O[C@H](c1ccc(O)c(O)c1)[C@H](O)C2 [Epicatechin]
b = O=c1c(O)c(-c2ccc(O)cc2)oc2cc(O)cc(O)c12
Smaller Saturated solubility value? Options are a and b In your reply, give the label of the chosen option. b

###

- Procedure Details: Experiment 1: promoting absorption of β-carotene, yogurts of OLL1251 and other strains
- Format: in vivo
- Run Conditions: male, SD, oral; rat serum, 5 mg/kg-body weight β-carotene, 11.3 g/kg-body weight yogurt, up to 480 minutes; read-out: Area Under the blood concentration-time Curve (AUC) of β-carotene (converted)
Reported Property: AUC (ng·h/mL)
Note: unit ng·h/mL is implicit; provide only the numeric part.

Query (compound): CC1=C(/C=C/C(C)=C/C=C/C(C)=C/C=C/C=C(C)/C=C/C=C(C)/C=C/C2=C(C)CCCC2(C)C)C(C)(C)CCC1 ; field requested: AUC 75

###

- Procedure Details: Evaluation for dissolvability of phytochemical (dissolution rate in water)
This section presents molecules with their documented Saturated solubility values.

These solved cases illustrate the format of a correct answer.
Molecule	Saturated solubility
CC(C)=CCC/C(C)=C/C=C/C(C)=C/C=C/C(C)=C/C=C/C=C(C)/C=C/C=C(C)/C=C/C=C(\C)CCC=C(C)C	0.1 or less mg/100 g
O=c1cc(-c2ccc(O)c(O)c2)oc2cc(O)cc(O)c12	0.1 or less mg/100 g
CC1=C(/C=C/C(C)=C/C=C/C(C)=C/C=C/C=C(C)/C=C/C=C(C)/C=C/C2=C(C)C[C@@H](O)CC2(C)C)C(C)(C)CCC1	0.1 or less mg/100 g
CC1=CCCC(C)(C)C1/C=C/C(C)=C/C=C/C(C)=C/C=C/C=C(C)/C=C/C=C(C)/C=C/C1=C(C)CCCC1(C)C (stereo not shown)	0.1 or less mg/100 g
CC1=C(/C=C/C(C)=C/C=C/C(C)=C/C=C/C=C(C)/C=C/C=C(C)/C=C/C(=O)[C@]2(C)C[C@@H](O)CC2(C)C)C(C)(C)C[C@H](O)C1	0.1 or less mg/100 g

Query (molecule): CC1=C[C@H](O)CC(C)(C)[C@H]1/C=C/C(C)=C/C=C/C(C)=C/C=C/C=C(C)/C=C/C=C(C)/C=C/C1=C(C)C[C@@H](O)CC1(C)C ; field requested: Saturated solubility 0.1 or less mg/100 g

Query (molecule): CC1=C(/C=C/C(C)=C/C=C/C(C)=C/C=C/C=C(C)/C=C/C=C(C)/C=C/C2=C(C)CCCC2(C)C)C(C)(C)CCC1 ; field requested: Saturated solubility 0.1 or less mg/100 g
